Assay: yeast display, Sf9 membrane polyspecificity reagent, FACS + sequencing; frameworks hold sequencing errors
measured.attribute: polyreactivity (PSR sort gate)

[[record]]
primary_sequence = "QVQLVESGGGVVQAGVSLRLSCAASGFTSHGYAKGWYRQAPGQERELVAAIDSVGSTYYADSVKGRFTISRDNSKNTVYLQMNSLKQEDTAVYYCAARRKRVSFYQEYDYWGQGTQVTVSS"
observed_result = "low polyreactivity"

[[record]]
primary_sequence = "QVQLVESGGGIVQAGGSLRLSCAASGIIFRAYAMGWSRQAPGKERELVAAISWSGGSTYYADSVKGRFTISRDNAKYTVYLQMNSLNPEDTAVYYCAAESLVYDFDYWGQGTQVTVSS"
observed_result = "high polyreactivity"

[[record]]
primary_sequence = "QVQLVESGGGLVQAGGSLRLSCAPSGRILWFYAMGWYRQAPGKERELVAAISSSSGRTYYADSVKGRFTISRDNAKNTVYLQMYILKPEDSAVYYCAATHAVARPLEYDYWGQGTHVTVSS"
observed_result = "low polyreactivity"

[[record]]
primary_sequence = "QVQLVESGGGLVQAGGTLRLSCAASGSTFRYNAMGWYRQEPGKEWELVAAITDSGSSTYYADSVKGRFTISRDNAKNTVYLQMNSLKPEDTAVYYCAAAGSRYAWGYVYWGQGTQVTVSS"
observed_result = "high polyreactivity"

[[record]]
primary_sequence = "QVQLVESGGGLVQAGGSLRLSCAASGSNFDIYAMGWSRQAPGKERELVAAISWNGGDTTYADSVKGRFTISRDNAKNTVYLQLNSLKPEDTAVYYCAADLGYWVADYYWGQGTQVTVSS"
observed_result = "high polyreactivity"


* * *

Assay: yeast display, Sf9 membrane polyspecificity reagent, FACS + sequencing; frameworks hold sequencing errors
measured.attribute: polyreactivity (PSR sort gate)

[[record]]
primary_sequence = "QVQLVESGGGLVQAGGSLRLSCADSGLIFRHYAMGWYRQAPGKERELVASISYRGGSTYYADSVKGRFTISRDNPKNTVYLQMNSLKPEDTAVDYCAADTYYPTYWSVTYGYDYWGQGTQVTVSS"
observed_result = "low polyreactivity"

[[record]]
primary_sequence = "QVQLVESGGGLVQAGGSLRLSCPASGRTFYKNAMGWYRQAPGKERELVAAITSGGSTNYADSVKGRFTISRDNAKNTVYLQMNSLKSEDTAVYYCAAQQFPYYRSRYSYINKYDYWGQGTQVTVSS"
observed_result = "high polyreactivity"

[[record]]
primary_sequence = "QVQLVESGGGLVQAGGSLRLSCAASGFTFGFNTMGWYRQAPGKERELVATITSGGSTYYADSVKGRFTISRDNAKNTVYLQMNILKPEDTAVYYCAATAGSPWAKSRYGYWGQGTQVTVSS"
observed_result = "low polyreactivity"

[[record]]
primary_sequence = "QVQLVESGGGLVQAGGSLRLSCAASGRIFVYNVMGRYRQAPGKERELVAAISWGTGSTYADSVKGRFTISRDNAKNTVYLQMNSLKPEDTAVYYCAADSFIPPYDHWGQGTQVTVSS"
observed_result = "low polyreactivity"

[[record]]
primary_sequence = "QVQLVESGGGLVQAGGSLRLSCAASGSTFVRNDMGWYRQAPGKERELVAAINGDGRTYYADSVKGRFTISRDNAKNTVYLQLNSLKPEDTAVYYCAADGYLLYVQHPNGRRYDYWGQGTQVTVSS"
observed_result = "low polyreactivity"

[[record]]
primary_sequence = "QVQLVESGGGLVHSGGSLRLSCAASGRIFLPYGMGWYRKAPGKERELVATITIGGSTTYADSVKGRFTISRDNAKNTVYLLMNSLKPEDTAVYYCAVLRWVYYLHGYDYWGHGTQVTVSS"
observed_result = "low polyreactivity"

[[record]]
primary_sequence = "QVQLVESGGGLVKAGGSLRLSCAASGYTFGKYAMGWYRQAPGKERELVAAISWSGGSTYYADSVKGRFRISRDNAKNTVYLQMNSLKPEDTAVYYCNKGYFGRYGYWGQGTQVTVSS"
observed_result = "high polyreactivity"

[[record]]
primary_sequence = "QVQLEESGGGLVQAGGRLRLTCAASGLTFYANAMGWYRQAPGKERELVATISVGTDSTNYADSVKGRFTISRDNAKNTVYLQMTSMKPEDTAVYYCKALYEEYYAQDPYDYWGQGTQVTVSS"
observed_result = "high polyreactivity"

[[record]]
primary_sequence = "QVQLVESGGGLVQAGGSLRLSCAASGSIFGDNAMGWYRQAPGKERELVAAISTRGGRTYYADSVKGRFTISRDNAKNTVYLQMNSLKPEDSAVYYCATSGGRPYKYEYWGQGTQVTVSS"
observed_result = "high polyreactivity"

[[record]]
primary_sequence = "QVQLVESGGGLVQAGGSLRLSCAASGSIGVYAMGWYRQSPGKERELVAGISRSGSSTFFADSVKGRFTISRDNAKNTVYLQMNSLKPEDTAVYYCTAYTYNYRQGSEYYYWGQGTQVTVSS"
observed_result = "high polyreactivity"

[[record]]
primary_sequence = "QVQLVESGGGLLQAGGSLRLSCAASGRIFGQYAMGWYRQAPGKEREFVAGISTTGGSTYYADSVKGRFTISRDNAKNTVYLQMNSLKPEDTAVYYCAVRINWSRWYHYYTYNYWGQGTQVTGSS"
observed_result = "high polyreactivity"

[[record]]
primary_sequence = "QVQLVESGGGLVQAGGSLRLSCAASGSIFTRYAMGWYRQAPGKERELVAAISQSGGNTYYADSVKGRFTISRDNAKNTVYLQMNSLKPEDTAVYYCAARWPWTHTRGYWGQGTQVTVSS"
observed_result = "high polyreactivity"

[[record]]
primary_sequence = "QVQLVESGGGLVQAGGSLRLSCAASGNIFVEYAMGWYRPAPGKERELVAAITNSGGRTHYSDSVKGRFTISRDNAKNTVYLQMNSLKPEDSEVYFCAAPTKYRSRRYYWGQGTQVTVSS"
observed_result = "high polyreactivity"

[[record]]
primary_sequence = "QVQLVESGGGLVQAGGSLRLSCAASGRIFGINGMGWYRQAPGKERELVAAITWIGGRTYYADSVKGRFTISRDNAKNTVYLQMNSLKPEDTAVYYCNAVYTQRFATYRRYDYWGQGTQVTVSS"
observed_result = "high polyreactivity"

[[record]]
primary_sequence = "QVQLVESCGGLVQAGGSLRLSCASSGFIFFENAMGCYIQAPCKERELVAVISSSGTSTYYADSVKGRFTISRDNAKNTVYLQMTSLKPEDTAVYYCAKDYYRSYGREDYWGQGTQVTVSS"
observed_result = "low polyreactivity"

[[record]]
primary_sequence = "QVQLVESGGGLVQAGGSHRLSCAASGFTIVQYAMGWYRQAPGKERELVARISRNGGSTYYADSVKGRFTISRDNAKNTVYLQMNSLKPEDTAVYYCNALRGPVKYYSWGQGTQVTVSS"
observed_result = "low polyreactivity"

[[record]]
primary_sequence = "QVQLVESGGGLVQAGGSLRLSCAASGSTFSLYDMGWYRQAPGKERELVAAISYSGGSTYYADSVKGRFTISRDNAKNTVYLQMNSLKPEDTAVFYCATRLFYPRFFYWGQGTQVTVSS"
observed_result = "high polyreactivity"

[[record]]
primary_sequence = "QVQLVESGGGLVQAGGSLRLSCAASGSTFRRNAMGWYRQAPGKERELVAAISRSGGSTYYADSVKGRFTISRDNAKNTVYLQMNSLKPEDTAVYYCAADAARTSHWSGDYWGQGTQVTVSS"
observed_result = "high polyreactivity"

[[record]]
primary_sequence = "QVQLVESGGGLVQAGGSLRLSCAASGRTFGYNTMGWYRQAPGKERELVATIRTNGVSTYYADSVKGRFTISRDNAKNTVYLQMNSLKPEDTAVYYCNAPRTRKQKTIYVNAPGNYWGQGTQVTVSS"
observed_result = "low polyreactivity"

[[record]]
primary_sequence = "QVQLVESGGGLVQAGGSLRLSCAASGRTFRSYAMGWYRQAPGKERELVAVISGGGTYYADSVKGRFTISRDNAKNTVYLQMNSLKPEDTAVYYCAAQFHFRPFSWTYDYWGQGTQVTVSS"
observed_result = "high polyreactivity"

[[record]]
primary_sequence = "QVQLVESGGGLVQAGGSLRLSCAASGSTFPPNAMGWYRQAPGKERELVAGINGSGGRTYYADSVKGRFTISRDNAKNTVYLQMNSMKPEDTAVYYCATRLRSEYYYNKWYYHWGQGTQVTVSS"
observed_result = "high polyreactivity"


* * *

Assay: yeast display, Sf9 membrane polyspecificity reagent, FACS + sequencing; frameworks hold sequencing errors
measured.attribute: polyreactivity (PSR sort gate)

[[record]]
primary_sequence = "QVQLVDSGGGLVQAGGTLRLSCGASGLIFYLYAMGWFRQAPGKERELVAAITYSGGSTRYADSVKGRFTISRDNAKNTVYFQKNSLKPEDTAVYYCNAAGTAPTELDYWGQGSQVTVSS"
measured_attribute = "polyreactivity (PSR sort gate)"
observed_result = "low polyreactivity"

[[record]]
primary_sequence = "QVQLVESGGGLVQAGGSLRLSCAASGLIFGGYAMGWYRQAPGKERELVAAISWDDGDTYYADSVKGRFTISRDNAKNTVYLQMNSLKPEDSAVYYCAAESLSGAHGYWGQGTQVTVSS"
measured_attribute = "polyreactivity (PSR sort gate)"
observed_result = "low polyreactivity"

[[record]]
primary_sequence = "QVQIVESGGGLVQAGGSLRLSSAASGSIFPAYAMGWYSLAPWKERELVASITGSGGTTYYADSVKGRFTISRDNAKNTGYLQMNSLKPVDTADNYCNARYYVYSATVDRYGYWGQGSQVTVSS"
measured_attribute = "polyreactivity (PSR sort gate)"
observed_result = "high polyreactivity"

[[record]]
primary_sequence = "QVQLVESGGGLVQAGGSLRLSCAASGRIFRRNVMGWYRQAPGKERELLAAIRGTGSTTYADSVKGRFTISRDNAKNTVYLQMNSLKPEDTAVYYCNAYKGQTGGGGRYGYWGQGTQVTVSS"
measured_attribute = "polyreactivity (PSR sort gate)"
observed_result = "high polyreactivity"

[[record]]
primary_sequence = "QVQLVQSGGGLVQAGGSLRLSCAASGRISIIYAMVWYRQAPGKERELVARISGSGGSTNYADSVKGRFTISRDNAKNTVYLQMNSLKPEDTAVYYCAARHYAVRRSRYPGKLGYYWVQGTQVTVSS"
measured_attribute = "polyreactivity (PSR sort gate)"
observed_result = "high polyreactivity"

[[record]]
primary_sequence = "QVQLVESGGGLVQAGGSLRLSCAASGITINGYVMGWYRQAPGKERELVAAITSGARTYYADSVKGRFTISRDNAKNTVYLQMNSLKPEDTAVYYCAASIWLYRYYYWGQGTQVTVSS"
measured_attribute = "polyreactivity (PSR sort gate)"
observed_result = "high polyreactivity"

[[record]]
primary_sequence = "QDQHVESGGGLVQAGGSLRLSCAASGLTFHRYAMGWSRQAPGKERELVAAINYSGGRTYYADSVKGRFTISRDNAKNTVYLLMNSLKPEDTAVYYCAGYDYWGQGTQVTVSS"
measured_attribute = "polyreactivity (PSR sort gate)"
observed_result = "high polyreactivity"

[[record]]
primary_sequence = "QVQLVESGGGLVQAGGSLRLSCAASGNTFVFYAMGWYRQAPGKERELVAAIDTGGTTNYADSVKGRFTISRDNAKNTVYLQMNSLKPEDTAVYYCAKRRLYWSGQGWVRTYGYWGQGTQVTVSS"
measured_attribute = "polyreactivity (PSR sort gate)"
observed_result = "high polyreactivity"

[[record]]
primary_sequence = "QVQLVESGGGLVQAGGSLRLSCAASGSIFSKYTMGWSRQAPGKEWELVAVISDSGASTYYADSVKGRFTISRDNAKNTVYLEMNSLKPEDTAVYYCAAVYRGALTLYYWGQGTQVTVSS"
measured_attribute = "polyreactivity (PSR sort gate)"
observed_result = "high polyreactivity"

[[record]]
primary_sequence = "QVQLVESGGGLVQAGGSLRLSCAASGRTFAKYAMGWYRQAPGKEREWVAAINSSGGSTYYADSVKGRFTISRDNAKNTVYLQMNSLKPEDTAVYYCAKEYYSYDVYLGVSYVGRYDYWGQGTQVTVSS"
measured_attribute = "polyreactivity (PSR sort gate)"
observed_result = "low polyreactivity"

[[record]]
primary_sequence = "QVQLVESGGGLVQAGGSLRLSCAASGSIFYYYAMGWYRQAPGKERELVAAITYSGGSTHYADSVKGRFTISRDNAKNTVYLQMNSLKPDDTAVFYCAVYYRSHSGSRIYYWGQGTQVTVSS"
measured_attribute = "polyreactivity (PSR sort gate)"
observed_result = "high polyreactivity"


Provenance of the data: the nanobody polyreactivity screen of Harvey et al. (2022)
